- System: NOMO1
- method_description: cell viability relative to DMSO control; higher = less cytotoxic
- condition_description: RPMI 5 mM glucose + 10% FBS; 48 h; 46.1 µM
measurement_name: cell viability (%)
Response body: numeric value in %, unit text excluded.

compound=C[C@H](NC(=O)/C(C#N)=C/c1cccc(Br)n1)c1ccccc1 unit_abbrev=% value_observed=7.32

Asked: Give a short answer stating reported cell viability for `COc1nccc(-c2c(-c3ccc(F)cc3)ncn2C2CCNCC2)n1` .
Given back: 74

Asked: Give a short answer stating reported cell viability for `Cc1cc(CN2CCN(c3c(Br)cnc4[nH]c(-c5ccc(N6CCN(C)CC6)cc5)nc34)CC2)no1` .
Given back: 80.6

Asked: Give a short answer stating reported cell viability for `CN[S+](=O)([O-])Cc1ccc2[nH]cc(CCN(C)C)c2c1` .
Given back: 111

Asked: Give a short answer stating reported cell viability for `C#Cc1cccc(Nc2ncnc3cc(OCCOC)c(OCCOC)cc23)c1` .
Given back: 70.7

Asked: Give a short answer stating reported cell viability for `CC(=O)N(C)c1cccc(-c2ccnc3c(C(=O)c4cccs4)cnn23)c1` .
Given back: 90.1

Asked: Give a short answer stating reported cell viability for `Cc1ccc(NC(=O)c2ccc(CN3CCN(C)CC3)cc2)cc1Nc1nc(-c2cccnc2)cs1` .
Given back: 74.6

Asked: Give a short answer stating reported cell viability for `Cc1cn2c(-c3cn[nH]c3)cnc2c(Nc2ccc(C(=O)N3CCNCC3)cc2F)n1` .
Given back: 36.1

The measurements presented in this section are drawn from the supplement of paper PMC11451515.
